System: SK-BR-3
METHOD_DESCRIPTION: Cytotoxicity against human SKBR3 cells after 72 hrs in presence of NQO1 inhibitor dicoumarol
Type: functional, cell-based
REPORTED_CONDITIONS: SK-BR-3, 72 h
# IC50 per record follows
MEASURE_NAME: IC50 (nM)

                            chemical_string  measure_name  observed_measurement
0  CO[C@H]1/C=C\C=C(/C)C(=O)NC2=CC(=O)C(NCCN(C)C)=C(C[C@@H](C)C[C@H](OC)[C@H](O)[C@@H](C)/C=C(\C)[C@@H]1OC(N)=O)C2=O          IC50                   230
1  C=CCNC1=C2C[C@@H](C)C[C@H](OC)[C@H](O)[C@@H](C)/C=C(\C)[C@H](OC(N)=O)[C@@H](OC)/C=C\C=C(/C)C(=O)NC(=CC1=O)C2=O          IC50                   410
